# kon listing for each entry below
assayed-target: T1, Human OX40 (Sino Biological Inc) (human, UniProt P43489 29-216, limits assumed)
T1 construct: Bought soluble protein used as SPR analyte; also called huOX40
T1 sequence: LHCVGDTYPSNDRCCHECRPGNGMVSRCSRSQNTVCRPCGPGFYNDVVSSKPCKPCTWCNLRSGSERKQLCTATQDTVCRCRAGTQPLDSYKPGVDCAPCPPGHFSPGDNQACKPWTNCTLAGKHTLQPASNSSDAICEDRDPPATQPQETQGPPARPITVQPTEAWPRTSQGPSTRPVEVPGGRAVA
measurement-description: SPR (Biacore), antibody captured via anti-human Fc, huOX40 analyte

{"binder": "1A7.gr.NADS (antibody, V domains shown) VH: EVQLVQSGAEVKKPGASVKVSCKASGYTFTDSYMSWVRQAPGQGLEWIGDMYPDNADSSYNQKFRERVTITRDTSTSTAYLELSSLRSEDTAVYYCVLAPRWYFSVWGQGTLVTVSS VL: DIQMTQSPSSLSASVGDRVTITCRASQDISNYLNWYQQKPGKAPKLLIYYTSRLRSGVPSRFSGSGSGTDFTLTISSLQPEDFATYYCQQGHTLPPTFGQGTKVEIK", "kon": "275000 M⁻¹ s⁻¹"}
{"binder": "1A7.gr.DA (antibody, V domains shown) VH: EVQLVQSGAEVKKPGASVKVSCKASGYTFTDAYMSWVRQAPGQGLEWIGDMYPDNGDSSYNQKFRERVTITRDTSTSTAYLELSSLRSEDTAVYYCVLAPRWYFSVWGQGTLVTVSS VL: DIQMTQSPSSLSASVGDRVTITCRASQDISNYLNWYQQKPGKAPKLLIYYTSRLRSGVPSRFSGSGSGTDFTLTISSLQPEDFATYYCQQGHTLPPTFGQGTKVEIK", "kon": "321000 M⁻¹ s⁻¹"}
